# subject_of_test: T1, human TREM2 Fc fusion (entire TREM2 ECD; only one Fc arm fused to TREM2) (human, UniProt Q9NZC2 19-174)
# T1 construct: also called huTREM2-Fc; recombinant hTREM2
# T1 sequence: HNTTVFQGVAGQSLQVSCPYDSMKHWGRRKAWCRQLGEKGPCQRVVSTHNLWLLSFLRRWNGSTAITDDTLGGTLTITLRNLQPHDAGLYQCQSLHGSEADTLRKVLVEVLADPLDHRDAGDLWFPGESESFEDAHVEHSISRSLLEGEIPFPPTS
# assay_explanation: BLI, Fab, monovalent
pKd: −log10 of the molar value.
Response key: 1 (yes) means pKd >= 8; 0 (no) means pKd < 8.

>  <binder>
AL2p-55 (antibody, V domains shown, same VH/VL entries as AL2p-56; Fab and IgG formats under one id) VH: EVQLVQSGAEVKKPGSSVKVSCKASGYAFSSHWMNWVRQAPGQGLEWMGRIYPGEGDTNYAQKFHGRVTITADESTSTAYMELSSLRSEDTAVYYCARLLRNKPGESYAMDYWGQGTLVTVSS VL: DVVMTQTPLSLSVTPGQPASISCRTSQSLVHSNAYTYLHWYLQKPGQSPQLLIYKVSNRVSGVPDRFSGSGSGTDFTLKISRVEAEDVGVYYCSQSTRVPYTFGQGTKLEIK

>  <label_value>
0 (no)

$$$$
>  <binder>
AL2p-23 (antibody, V domains shown, Fab and IgG formats under one id) VH: QVQLVQSGAEVKKPGSSVKVSCKASGYAFSSHWMNWVRQAPGQGLEWMGRIYPGDGQTNYAQKRQGRVTITADESTSTAYMELSSLRSEDTAVYYCARLLRNQPGESYAMDYWGQGTLVTVSS VL: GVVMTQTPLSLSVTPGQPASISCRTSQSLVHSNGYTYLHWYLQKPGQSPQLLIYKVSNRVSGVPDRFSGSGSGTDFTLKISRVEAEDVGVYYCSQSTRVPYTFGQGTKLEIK

>  <label_value>
1 (yes)

$$$$

Req: State whether the measured pKd reaches 8, counting equality as reaching it, for AL2p-21 (antibody, V domains shown, Fab and IgG formats under one id) VH: QVQLVQSGAEVKKPGSSVKVSCKASGYAFSSHWMNWVRQAPGQGLEWMGRIYPGDGDTNYAWKFQGRVTITADESTSTAYMELSSLRSEDTAVYYCARLLRNQPGESYAMDYWGQGTLVTVSS VL: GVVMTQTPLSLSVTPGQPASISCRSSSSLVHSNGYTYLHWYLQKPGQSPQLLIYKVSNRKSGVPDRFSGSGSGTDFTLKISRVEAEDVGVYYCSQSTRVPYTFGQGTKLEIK
Resp: 1 (yes)
